Origin of the recorded values: ChEMBL document CHEMBL1146008

# Test system: MCF7
# assay-summary: Inhibition of human MCF7 cell growth at 100 uM relative to control
# Assay type: functional
# experimental-setup: values are per cent of control
attribute-measured: growth, % of control at 100 µM (%)
The response must be a number in % with no trailing unit.

# return recorded growth, % of control at 100 µM for input CN(C)CCNC(=O)c1ccc(-c2cc(-c3ccc(C(=O)NCCN(C)C)cc3)ncn2)cc1
96

# return recorded growth, % of control at 100 µM for input CCN(CC)CCSc1ccc(-c2cc(-c3ccc(SCCN(CC)CC)cc3)ncn2)cc1
83

# return recorded growth, % of control at 100 µM for input O=C(NCCO)c1ccc(-c2cc(-c3ccc(C(=O)NCCO)cc3)ncn2)cc1
83

# return recorded growth, % of control at 100 µM for input OCCSc1ccc(-c2cc(-c3ccc(SCCO)cc3)ncn2)cc1
97

# return recorded growth, % of control at 100 µM for input c1nc(-c2ccc(SCCN3CCOCC3)cc2)cc(-c2ccc(SCCN3CCOCC3)cc2)n1
95

# return recorded growth, % of control at 100 µM for input c1nc(-c2ccc(SCCN3CCCCC3)cc2)cc(-c2ccc(SCCN3CCCCC3)cc2)n1
68

# return recorded growth, % of control at 100 µM for input COCCSc1ccc(-c2cc(-c3ccc(SCCOC)cc3)ncn2)cc1
33
